Would you kindly list LD50 at 336 h for each of these molecules?
Experimental Details: in vivo
Condition Label: oral, mouse, in olive oil, 14 days observation

Request: So what's the measured LD50 at 336 h for this one? CC(C(=O)O)c1ccc(CC(C(F)(F)F)C(F)(F)F)cc1 (stereo not drawn) [Specimen I]
Result: 1100 mg/kg

Request: Requested field: LD50 at 336 h. Item: CC(C(=O)O)c1ccc(CC(C)C(F)(F)F)cc1 (stereo not drawn) [Specimen II]
Result: 1040 mg/kg

Request: Return reported LD50 at 336 h; argument: CC(C(=O)O)c1ccc(CCC(F)(F)F)cc1 (stereo not drawn) [Specimen III]
Result: 1000 mg/kg

Ref: patent US4567293A
